Source: ChEMBL document CHEMBL2021889

Test system Acetylcholinesterase (Electrophorus electricus), pIC50 listed for each of the molecules.
The quantity pIC50 is defined as the negative base-10 logarithm of the molar concentration.

Solved entries (count: 2):
# Sample Smiles, pIC50
data = [
    ("C#CCN1CCc2nc3nc(Cl)c(C#N)cc3c(N)c2C1", 5.85),
    ("C#CCN1CCc2nc3nc(N(C)C)c(C#N)cc3c(N)c2C1", 7.54),
]

Consider now this further molecule.
# input Give pIC50 (Acetylcholinesterase (Electrophorus electricus)) of the following molecule: C#CCN1CCc2nc3nc(N4CCCCC4)c(C#N)cc3c(N)c2C1
# output 7.18

* * *

target: Cholinesterase (Homo sapiens, UniProt P06276); experiment: Inhibition of human serum BuChE using butyrylthiocholine iodide as substrate by Ellman's method
Sequence (P06276 whole entry): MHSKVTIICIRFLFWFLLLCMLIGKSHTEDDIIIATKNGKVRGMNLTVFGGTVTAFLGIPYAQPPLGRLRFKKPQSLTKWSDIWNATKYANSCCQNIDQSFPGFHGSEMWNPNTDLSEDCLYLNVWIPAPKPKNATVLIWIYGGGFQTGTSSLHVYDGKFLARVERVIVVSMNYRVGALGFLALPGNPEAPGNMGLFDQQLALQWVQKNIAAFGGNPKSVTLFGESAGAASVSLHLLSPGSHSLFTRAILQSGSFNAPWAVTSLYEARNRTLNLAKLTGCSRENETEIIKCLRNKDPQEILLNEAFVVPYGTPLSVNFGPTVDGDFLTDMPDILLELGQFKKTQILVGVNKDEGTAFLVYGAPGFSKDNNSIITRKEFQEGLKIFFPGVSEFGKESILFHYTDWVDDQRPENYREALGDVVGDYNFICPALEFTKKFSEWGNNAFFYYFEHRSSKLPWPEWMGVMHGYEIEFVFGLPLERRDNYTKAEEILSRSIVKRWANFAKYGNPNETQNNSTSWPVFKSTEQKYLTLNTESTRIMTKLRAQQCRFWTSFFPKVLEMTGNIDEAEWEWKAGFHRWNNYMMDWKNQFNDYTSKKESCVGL
Measured Attribute: IC50

# input So what does the record say about IC50 for C#CCN1CCc2nc3nc(N4CCCC4)c(C#N)cc3c(N)c2C1 ?
# output 82 µM
